EXPERIMENTAL_DETAILS: chemical genetic growth profiling, strain panel (AID 1159580);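 further: tested at 20 µM; growth read once vehicle control cultures reached saturation at 30 °C; 1 = growth at the plate median or of vehicle wells; lower values mean less growth of the strain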
CONDITIONS: S. cerevisiae deletion strains, growth OD, locus YDR069C, strain doa4
Among all 5,500 compounds or so, about 2,000 (36%) were called active. Another 18% or so got no clear call; they are omitted. No stated cut-off is given here; in the data, active means normalized growth mostly below about 0.91 (no sharp cut-off); inconclusive means no clear call, values can overlap the other calls; inactive means mostly above about 0.92. The list shows a part of the results.
Classes used: true (1) for active, false (0) for inactive

- COMPOUND: "COc1ccccc1OCCNCC(O)COc1cccc2[nH]c3ccccc3c12 (stereo not given)"
  ASSIGNED_CATEGORY: "false (0)"
- COMPOUND: "CCCCC(CC)CN1CN(CC(CC)CCCC)CC(C)(N)C1 (stereo not given)"
  ASSIGNED_CATEGORY: "true (1)"
- COMPOUND: "COc1cc(C(=O)NCc2ccc(OCCN(C)C)cc2)cc(OC)c1OC"
  ASSIGNED_CATEGORY: "false (0)"
- COMPOUND: "C[C@H]1[C@H]2CCC3C4CC=C5C[C@@H](N(C)C)CC[C@]5(C)C4CC[C@@]32CN1C (stereo not given in full)"
  ASSIGNED_CATEGORY: "false (0)"
- COMPOUND: "CN(C)CCOC(C)(c1ccccc1)c1ccccn1 (stereo not given)"
  ASSIGNED_CATEGORY: "false (0)"

----------
EXPERIMENTAL_DETAILS: chemical genetic growth profiling, strain panel (AID 1159580);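 further: tested at 20 µM; growth read once vehicle control cultures reached saturation at 30 °C; 1 = growth at the plate median or of vehicle wells; lower values mean less growth of the strain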
CONDITIONS: S. cerevisiae deletion strains, growth OD, locus YJL095W, strain BCK1 (second series)
In all, about 5,500 compounds went through this assay and about 2,000 (36%) were called active. About 18% were inconclusive and are not listed. Cut-off read from the data, not from the text of the source: active = normalized growth mostly below about 0.91 (no sharp cut-off); inconclusive = no clear call, values can overlap the other calls; inactive = mostly above about 0.92. This is one part of the list.
Outcomes: 1 (yes) (active), 0 (no) (inactive)

- MOL_SMILES: "Oc1c(I)cc(Cl)c2cccnc12"
  ASSIGNED_CATEGORY: "1 (yes)"
- MOL_SMILES: "O=[N+]([O-])c1cc([As](=O)(O)O)ccc1O"
  ASSIGNED_CATEGORY: "0 (no)"
- MOL_SMILES: "Cc1ccc2c(Cl)cc(Cl)c(O)c2n1"
  ASSIGNED_CATEGORY: "0 (no)"
- MOL_SMILES: "Oc1c(Br)cc(Br)c2cccnc12"
  ASSIGNED_CATEGORY: "1 (yes)"
- MOL_SMILES: "CS(=O)(=O)CCCCN=C=S"
  ASSIGNED_CATEGORY: "1 (yes)"
- MOL_SMILES: "O=[N+]([O-])c1cc(O)c(O)c([N+](=O)[O-])c1"
  ASSIGNED_CATEGORY: "0 (no)"
- MOL_SMILES: "Oc1ccc(Cl)c2cccnc12"
  ASSIGNED_CATEGORY: "1 (yes)"

----------
Let's look at some molecules and their measured normalized growth.
EXPERIMENTAL_DETAILS: chemical genetic growth profiling, strain panel (AID 1159580);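 further: tested at 20 µM; growth read once vehicle control cultures reached saturation at 30 °C; 1 = growth at the plate median or of vehicle wells; lower values mean less growth of the strain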
CONDITIONS: S. cerevisiae deletion strains, growth OD, locus YDL185W, strain tfp1, hits give low values
About 2,000 (36%) of roughly 5,500 compounds were called active. Inconclusive results (about 18%) are left out. Some of the results follow.

- MOLECULE: "C=C[C@](C)(O)CCC=C(C)C"
  normalized growth: 1.02
- MOLECULE: "COc1c2c(cc3c1OCO3)CCN(C)C2"
  normalized growth: 0.995
- MOLECULE: "NC(=NCCC[C@H](N)C(=O)O)NC(CCC(=O)O)C(=O)O (stereo not given in full)"
  normalized growth: 1.01
- MOLECULE: "C/C=C/c1ccc2c(c1)OCO2"
  normalized growth: 0.998
- MOLECULE: "CCCc1occc(=O)c1/C=C/O"
  normalized growth: 0.97
